# tested on: human serum albumin (human) (UniProt P02768)
# Sequence (P02768 25-609 limits assumed): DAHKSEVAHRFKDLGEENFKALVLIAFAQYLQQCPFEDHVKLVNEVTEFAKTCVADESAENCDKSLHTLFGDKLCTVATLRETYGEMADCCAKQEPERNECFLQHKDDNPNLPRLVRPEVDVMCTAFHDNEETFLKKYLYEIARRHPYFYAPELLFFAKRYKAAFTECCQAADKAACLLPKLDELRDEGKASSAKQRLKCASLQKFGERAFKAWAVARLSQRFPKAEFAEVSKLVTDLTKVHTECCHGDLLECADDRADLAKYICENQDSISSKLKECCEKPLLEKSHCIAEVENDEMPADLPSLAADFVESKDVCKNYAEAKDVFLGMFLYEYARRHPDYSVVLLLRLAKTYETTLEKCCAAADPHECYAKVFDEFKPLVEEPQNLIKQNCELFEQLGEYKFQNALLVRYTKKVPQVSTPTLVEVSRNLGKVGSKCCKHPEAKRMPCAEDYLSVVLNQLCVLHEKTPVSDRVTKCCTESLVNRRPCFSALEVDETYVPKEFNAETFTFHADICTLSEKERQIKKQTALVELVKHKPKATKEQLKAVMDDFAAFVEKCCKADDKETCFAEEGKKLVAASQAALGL
# test protocol: screening ELISA
measured quantity: HSA

P: SEQ ID NO 297 (designed binder) MLPAPKNLVVSRVTEDSARLSWTAPDAAFDSFLIPYAETSPSGEAITLFVPGSERSYDLTGLKPGTEYNVVIQGVKGGRPSNPLVAASTT
Q: SEQ ID NO 152 (designed binder) MLPAPKNLVVSRVTEDSARLSWTAPDAAFDSFFIGYLEPQPPGEAIVLTVPGSERSYDLTGLKPGTEYNVTIQGVKGGFPSSPLSAIFTT
Incoming: // pick larger HSA from pair: P vs Q Response format: the label of the selected entry.
Outgoing: P
(P: 52600, Q: 5300)
